ASSAYED TARGET: T1, hSEMA4D ECD-His (His-tagged human SEMA4D protein extracellular domain, Met22-Arg734) (human, UniProt Q92854 22-734)
T1 construct: Expressed in CHO-S cells, purified on Ni column; also called protein immunogen; immunogen A; not shown: His tag of the pCP vector
T1 sequence: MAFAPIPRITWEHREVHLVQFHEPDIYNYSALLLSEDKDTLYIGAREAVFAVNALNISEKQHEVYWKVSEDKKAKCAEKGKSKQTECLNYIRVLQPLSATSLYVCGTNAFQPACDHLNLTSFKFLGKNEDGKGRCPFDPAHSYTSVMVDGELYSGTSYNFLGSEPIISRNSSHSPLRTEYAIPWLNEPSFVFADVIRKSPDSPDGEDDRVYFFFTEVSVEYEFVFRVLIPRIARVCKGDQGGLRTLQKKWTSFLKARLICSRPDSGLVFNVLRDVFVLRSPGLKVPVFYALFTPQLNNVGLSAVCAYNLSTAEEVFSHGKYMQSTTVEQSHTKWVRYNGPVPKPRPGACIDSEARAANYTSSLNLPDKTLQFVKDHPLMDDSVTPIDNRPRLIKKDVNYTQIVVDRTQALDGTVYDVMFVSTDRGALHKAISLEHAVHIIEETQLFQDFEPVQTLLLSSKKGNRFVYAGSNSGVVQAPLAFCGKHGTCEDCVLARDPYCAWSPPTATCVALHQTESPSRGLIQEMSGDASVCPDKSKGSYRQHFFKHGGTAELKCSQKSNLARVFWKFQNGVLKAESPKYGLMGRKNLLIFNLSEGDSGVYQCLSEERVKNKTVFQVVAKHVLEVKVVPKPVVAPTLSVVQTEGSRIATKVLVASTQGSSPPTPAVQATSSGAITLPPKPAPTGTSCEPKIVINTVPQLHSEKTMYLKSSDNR
ASSAY SUMMARY: ELISA, coated hSEMA4D ECD-His; Ab 0.0107 nM
# OD450 nm per record follows
# output: bare number, no unit

Past entries and their recorded results:
binder="37F11F9 (antibody, V domains shown, Mouse monoclonal antibody purified from hybridoma supernatant on protein A) VH: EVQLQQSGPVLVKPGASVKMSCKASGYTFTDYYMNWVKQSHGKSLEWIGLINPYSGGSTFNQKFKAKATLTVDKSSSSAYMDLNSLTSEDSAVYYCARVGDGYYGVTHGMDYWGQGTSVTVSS VL: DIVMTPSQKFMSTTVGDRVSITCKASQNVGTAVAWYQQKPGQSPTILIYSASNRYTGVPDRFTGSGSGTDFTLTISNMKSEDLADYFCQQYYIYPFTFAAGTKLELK" observed_measurement=0.131
binder="32C8F10 (antibody, V domains shown, Mouse monoclonal antibody purified from hybridoma supernatant on protein A) VH: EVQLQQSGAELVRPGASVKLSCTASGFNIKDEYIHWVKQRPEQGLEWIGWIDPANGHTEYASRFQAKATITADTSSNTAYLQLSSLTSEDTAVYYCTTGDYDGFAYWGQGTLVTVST VL: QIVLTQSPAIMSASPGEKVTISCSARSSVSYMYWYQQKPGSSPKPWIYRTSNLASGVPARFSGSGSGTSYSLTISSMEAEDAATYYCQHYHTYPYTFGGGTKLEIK" observed_measurement=0.207
binder="38H2E3 (antibody, V domains shown, Mouse monoclonal antibody purified from hybridoma supernatant on protein A) VH: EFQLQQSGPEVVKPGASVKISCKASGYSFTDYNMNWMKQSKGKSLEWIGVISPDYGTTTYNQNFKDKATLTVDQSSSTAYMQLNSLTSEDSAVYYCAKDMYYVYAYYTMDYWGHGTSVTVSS VL: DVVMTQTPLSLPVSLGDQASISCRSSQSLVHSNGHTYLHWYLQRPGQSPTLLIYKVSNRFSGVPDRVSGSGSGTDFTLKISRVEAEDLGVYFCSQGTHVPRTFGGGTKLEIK" observed_measurement=0.0878
binder="31C11G2 (antibody, V domains shown, Mouse monoclonal antibody purified from hybridoma supernatant on protein A) VH: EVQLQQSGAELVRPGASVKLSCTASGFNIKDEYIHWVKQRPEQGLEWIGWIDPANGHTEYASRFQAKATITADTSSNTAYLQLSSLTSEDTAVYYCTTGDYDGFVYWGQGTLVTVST VL: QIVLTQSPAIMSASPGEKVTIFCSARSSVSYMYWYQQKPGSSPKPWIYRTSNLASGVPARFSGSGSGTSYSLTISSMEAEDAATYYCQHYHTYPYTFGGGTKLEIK" observed_measurement=0.337
binder="37C4F7 (antibody, V domains shown, Mouse monoclonal antibody purified from hybridoma supernatant on protein A) VH: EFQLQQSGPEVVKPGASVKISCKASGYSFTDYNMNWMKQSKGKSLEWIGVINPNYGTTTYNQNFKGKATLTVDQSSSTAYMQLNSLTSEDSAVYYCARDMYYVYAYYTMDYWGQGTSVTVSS VL: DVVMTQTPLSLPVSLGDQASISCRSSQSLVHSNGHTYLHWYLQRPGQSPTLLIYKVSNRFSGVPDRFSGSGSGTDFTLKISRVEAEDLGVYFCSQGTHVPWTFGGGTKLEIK" observed_measurement=0.0864
binder="42B7G2 (antibody, V domains shown, Mouse monoclonal antibody purified from hybridoma supernatant on protein A) VH: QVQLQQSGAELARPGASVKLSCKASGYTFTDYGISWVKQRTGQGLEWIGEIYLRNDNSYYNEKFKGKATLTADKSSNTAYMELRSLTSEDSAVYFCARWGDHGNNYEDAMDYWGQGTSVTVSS VL: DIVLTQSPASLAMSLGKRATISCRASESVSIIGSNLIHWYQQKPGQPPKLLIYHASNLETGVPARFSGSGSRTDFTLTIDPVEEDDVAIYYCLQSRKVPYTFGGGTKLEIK" observed_measurement=0.25

Let us move to another entry and its OD450 nm.
Prompt: Which OD450 nm reading was recorded for the binder 31G10C5 (antibody, V domains shown, Mouse monoclonal antibody purified from hybridoma supernatant on protein A) VH: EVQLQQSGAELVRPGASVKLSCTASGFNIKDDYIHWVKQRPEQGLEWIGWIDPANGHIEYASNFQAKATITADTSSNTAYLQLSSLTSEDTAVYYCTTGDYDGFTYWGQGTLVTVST VL: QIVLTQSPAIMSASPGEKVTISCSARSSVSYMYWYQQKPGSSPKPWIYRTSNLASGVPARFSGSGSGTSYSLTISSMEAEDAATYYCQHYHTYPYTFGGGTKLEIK ?
Response: 0.197
